# TARGET ENTITY: T1, 人CX3CL1胞外区蛋白 CX3CL1(Q25-Q341)-6xHis (human, UniProt P78423 25-341)
# T1 sequence: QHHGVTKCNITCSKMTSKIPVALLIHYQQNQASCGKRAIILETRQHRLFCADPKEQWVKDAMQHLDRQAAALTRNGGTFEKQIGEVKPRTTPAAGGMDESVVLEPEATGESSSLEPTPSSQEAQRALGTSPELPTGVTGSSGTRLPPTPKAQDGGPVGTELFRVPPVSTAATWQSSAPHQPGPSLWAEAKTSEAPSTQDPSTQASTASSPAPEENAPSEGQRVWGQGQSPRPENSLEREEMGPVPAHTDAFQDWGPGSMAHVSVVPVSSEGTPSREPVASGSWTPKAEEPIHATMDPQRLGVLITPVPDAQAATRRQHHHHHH
# ASSAY DETAILS: cell-based or functional assay
RECORDED ENDPOINT: 抑制细胞迁移活性 IC50 (nM)
One number for each entry, in nM.

Data request: // fetch 抑制细胞迁移活性 IC50 given entry C032QG (antibody, human IgG2, kappa, V domains shown, Chimeric IgG2 mutant of C032 removing the NG hot spot of HCDR2 (NG to QG)) VH: EVQLQQSGPELVKPGASVKISCKASGYTFTDYYMNWVKQSHGKSLEWIGDINPNQGGTSYNQKFKGKATLTVDKSSSTAYMELRSLTSEDSAVYYCASSGNSYVDYWGQGTTLTVSS VL: DIVMTQSHKFMSTSVGDRVSITCKASQDVSTAVAWYQQKPGQSPKLLIYWASTRHTGVPDRFTGSGSGTDYTLTISSVQAEDLALYYCQQHYSSPYTFGGGTKLEIKR
Data returned: 2.27

Next up:
Data request: // fetch 抑制细胞迁移活性 IC50 given entry C032 (antibody, human IgG2, kappa, V domains shown, Human-mouse chimeric antibody of mAb032 with human IgG2 constant region, expressed in CHOK1; also called 嵌合抗体C032) VH: EVQLQQSGPELVKPGASVKISCKASGYTFTDYYMNWVKQSHGKSLEWIGDINPNNGGTSYNQKFKGKATLTVDKSSSTAYMELRSLTSEDSAVYYCASSGNSYVDYWGQGTTLTVSS VL: DIVMTQSHKFMSTSVGDRVSITCKASQDVSTAVAWYQQKPGQSPKLLIYWASTRHTGVPDRFTGSGSGTDYTLTISSVQAEDLALYYCQQHYSSPYTFGGGTKLEIKR
Data returned: 2.49
